Provenance of the data: PubChem BioAssay (NCI)

Recorded GI50 values for a group of molecules are listed next.
- Test system: HOP-62 NSCLC
- Assay Overview: NCI tumour cell line growth inhibition, 48 h

### Prompt Find the recorded GI50 belonging to CC[C@H](C)[C@H](NC(=O)N[C@@H](C)c1ccccc1)C(=O)N(C)[C@H](C[C@@H](OC(C)=O)c1nc(C(=O)N[C@@H](Cc2ccccc2)C[C@H](C)C(=O)OC)cs1)C(C)C and report it.
### Response 33 µM

### Prompt Find the recorded GI50 belonging to CCCCCCCCCCCCNC(=O)[C@H]1CSC(c2ccsc2)N1 (some centres undefined) and report it.
### Response 0.873 µM

### Prompt Find the recorded GI50 belonging to COC12C=C/C(=C(/C(=O)OCc3csc(SC)n3)C(=O)CCCCCCCCC3(OC)C=C/C(=C(/C(=O)OCc4cnc(SC)s4)C(=O)CCCCCCCC1)O3)O2 (centres undefined) and report it.
### Response 4.48 µM

### Prompt Find the recorded GI50 belonging to COc1ccc(-c2nn(-c3cccc(Cl)c3)cc2/C=C2\C(=N)N(c3ccccc3)N=C2N)cc1 and report it.
### Response 16 µM

----------
- Test system: CCRF-CEM leukemia
- Assay Overview: NCI tumour cell line growth inhibition, 48 h
Recorded TGI values for a group of compounds are listed next.

As a guide, the following entries are already answered.
| Compound | Tested Target | Obs Value |
| --- | --- | --- |
| CCC(C)C(NC(=O)C(CCCC[N+](=N)N)NC(=O)C(CCCC[N+](=N)N)NC(=O)c1ccc(OC)cc1)C(=O)NC(CCCC[N+](=N)N)C(=O)N1CCCC1C(=O)NC(CCCCN)C(=O)NC(CC(C)C)C(N)=O (stereo not given) | CCRF-CEM leukemia | > 100 µM |
| O=c1/c(=C/c2ccc3c(c2)OCO3)sc2nnc(Cc3ccccc3)n12 | CCRF-CEM leukemia | > 100 µM |
| COc1ccccc1-c1nccc(COc2ccccc2C[C@@H](Oc2ncnc3sc(-c4ccc(F)cc4)c(-c4ccc(OCCN5CCN(C)CC5)c(Cl)c4C)c23)C(=O)O)n1 | CCRF-CEM leukemia | > 35.7 µM |
| Cc1nc2cc(Nc3nc(Nc4ccc(F)cc4)nc(-c4ccc(Cl)cc4)n3)ccc2n1Cc1ccccc1 | CCRF-CEM leukemia | > 100 µM |

### Prompt Find the recorded TGI belonging to O=C(O)C(CS)N=Cc1nc(-c2ccccc2)oc1O (stereo not given) and report it.
### Response > 100 µM

----------
- Test system: RXF 393 renal
- Assay Overview: NCI tumour cell line growth inhibition, 48 h
Measured Quantity: TGI (µM)
Please reply with the bare figure in µM and do not write the unit itself.

| Molecule | TGI, µM |
| --- | --- |
| COc1ccc2nc3cc(Cl)ccc3c(Nc3ccc(O)c(CN4CCCC4)c3)c2c1 | 3.17 |
| Cc1cc(C(=O)Nc2cc(Nc3ncccc3-c3ncnc4nc[nH]c34)ccc2F)cc(C(C)(C)C#N)c1 | 42 |
| NC1(C(=O)O)CSSC1 | 11.1 |
| Cc1cc(C)c2nccc(NCCCN(C)C)c2c1[N+](=O)[O-] | 47.8 |
| CCOc1cccc(/C=N/NC(=O)Cc2ccc(Nc3ccnc(C(F)(F)F)c3)cc2)c1O | 40 |

### Prompt # value lookup — system RXF 393 renal, readout TGI, item COc1ccccc1Cn1c2c(c3cc(O)ccc31)C(=O)c1ccccc1C2=O
### Response 14.3

### Prompt # value lookup — system RXF 393 renal, readout TGI, item C/C(N=NC(=S)N1CCCCCC1)=C1\C=CC=CN1O
### Response 79.5

### Prompt # value lookup — system RXF 393 renal, readout TGI, item Nc1ccc2c(SCC(=O)Nc3ccccc3-c3ccccc3NC(=O)CSc3c4ccccc4nc4cc(N)ccc34)c3ccccc3nc2c1
### Response 63.5

### Prompt # value lookup — system RXF 393 renal, readout TGI, item C=C1C(=O)C23CC1CCC2C12CO[C@@]3(O)[C@@H](O)C1C(C)(C)C=CC2=O (stereo not given in full)
### Response 1.34
